All values here come from PubChem BioAssay.

Reported z-score is given for each of the following molecules.
- method: galactose survival enhancers in mitochondrial complex I cybrids – cell-based, galactose medium, ATP luminescence, primary screen (AID 1645843);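 further: positive z means more ATP and so rescue of galactose-driven cybrid death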
- conditions: complex I mutant cybrid cells, 72 h, hits give high values

>  <molecule>
N=c1ccn2c(n1)OC1[C@@H](O)[C@@H](CO)O[C@H]12 (some centres undefined)

>  <z-score>
-1.23

$$$$
>  <molecule>
CC(C)Cc1cn(C2CCN(C(=O)CC3CCCCCC3)CC2)nn1

>  <z-score>
2.74

$$$$
>  <molecule>
COc1ccc(F)c(-c2cccc(N)n2)c1

>  <z-score>
-0.555

$$$$
>  <molecule>
Cc1sc2ccccc2c1-c1ccn(CC(=O)Nc2ccnn2C(C)C)n1

>  <z-score>
-0.855

$$$$
